src = PubChem BioAssay (NCI)

Test system: TK-10 renal
Test: NCI-60 one-dose screen, 48 h
Conditions: 10 µM unless noted
About 83,000 compounds went through this panel and 20% of them were active in at least one assay; those are over-represented in the sample as a whole. Calls of active or inactive are those of the source. How the source made its calls: active means growth percent below 10; inactive means the rest.
Can you answer with just one of these options? y (active), n (inactive)

Study these solved cases before continuing.
Cc1ccc(C2CC(c3ccc(Nc4nc(NCCO)nc(Nc5ccc(Cl)cc5)n4)cc3)=NN2c2cc(Cl)cc(Cl)c2)cc1 (stereo unspecified)    n
Oc1ccc(-c2nc(-c3ccc4oc5ccc(-c6[nH]c(-c7ccc(O)cc7)nc6-c6ccccc6)cc5c4c3)c(-c3ccccc3)[nH]2)cc1    n
CCOC(=O)c1sc(-c2ccc(OS(=O)(=O)c3cccs3)c(C=O)c2)nc1C    n
COc1ccc(C(=O)Nc2ccc3nc(N4CCCCC4)cc(C)c3c2)cc1OC    n
O=c1oc2ccc(Br)cc2c(=O)n1-c1ccc(Cl)cc1F    y

### Prompt Could you check what this test reported for O=Cc1c(OCc2cnnn2CC(=O)Nc2ccc(Cl)cc2)ccc2ccccc12 ?
### Response n

### Prompt Could you check what this test reported for Nc1nonc1-n1nncc1-c1cccnc1 ?
### Response n

### Prompt Could you check what this test reported for c1ccc2cc3c(Nc4ccc(N5CCOCC5)cc4)ccnc3cc2c1 ?
### Response n

### Prompt Could you check what this test reported for O=C(Nc1ccc(Br)cc1F)c1cc(Cl)ccc1O ?
### Response y

### Prompt Could you check what this test reported for COc1cc(/C=C/C(=O)N2c3ccccc3CC2C)c(OC)c2c1OCO2 (stereo unspecified) ?
### Response n

### Prompt Could you check what this test reported for O=S1(=O)CCN(Cc2ccccc2)CC1 ?
### Response n

### Prompt Could you check what this test reported for CNCCNc1nc2ccccc2c2c(=O)c3cccc(OC)c3sc12 ?
### Response n

----------
Test system: HT29 colon
Assay: NCI-60 one-dose screen, 48 h (100 = growth as untreated, 0 = no growth, -100 = all killed)
Details: 10 µM unless noted
About 83,000 compounds went through this panel and 20% of them were active in at least one assay; those are over-represented in the sample as a whole.
MEASURED_ATTRIBUTE: growth (%)
Answer format: numeric, % implied, no suffix.

See these solved cases before continuing.
CC(=O)Nc1nc2c(s1)CCc1c-2cn(S(=O)(=O)c2ccccc2)c1-c1ccccc1    78.1
Cc1ccc(C(=O)c2oc3ccc4c(C)cc(=O)oc4c3c2C)cc1    14.3
Fc1ccc(Oc2ccc(Nc3ncnc4onc(-c5ccccc5)c34)cc2)cc1    109
CNCCNc1nc2ccccc2c2c(=O)c3cc(OC)ccc3sc12    -33.3
COc1ccc(/C=C2\SC(=Nc3ccccc3)NC2=O)cc1    -89.2

# context switch: different molecule, same growth
Item N[C@@H](CC/[N+]([O-])=N/O)C(=O)O ; assay system HT29 colon; growth reported as 99.8

----------
Test system: COLO 205 colon
Test: NCI-60 one-dose screen, 48 h
Settings: 10 µM unless noted
The panel holds about 83,000 compounds, 20% with a hit somewhere; the sample as a whole holds those more often. Calls of active or inactive are those of the source. How the source made its calls: active means growth percent below 10; inactive means the rest.
Can you answer with just one of these options? active, inactive

Study these solved cases before continuing.
NC1C(N)C(N)C1N (stereo not given)    inactive
CCOC(=O)C1(C(=O)OCC)N=C(c2ccccc2)C=C1c1ccccc1    inactive
CCN1C(=O)N(CC)C2C1NN=c1s/c(=C3\C(=O)N(CC(C)(C)C)c4ccccc43)c(=O)n12 (stereo not given)    active
OC(c1ccccc1)c1nnc(SCc2ccccc2)n1Cc1ccccc1 (stereo not given)    inactive
COc1ccc(OC)c(N(CCN2C(=O)c3ccccc3C2=O)C(=O)CCl)c1    inactive
O=C(CSc1nc2ccccc2c(=O)n1-c1ccccc1)Nc1ccc(C(=O)/C=C/c2ccc(Cl)cc2)cc1    inactive

### Prompt Could you check what this test reported for CC1=CCC(OC(=O)C(C)(C)CCC(O)(C(=O)OC2(C(C)C)CCC3(C)OC3C2)C(C)C)(C(C)C)CC1 (stereo not given) ?
### Response active

### Prompt Could you check what this test reported for CC1(O)COCCCCOc2c(CN)cccc2NC(=O)c2nc(cnc2N)-c2ccc(cc2)S(=O)(=O)C(C)(C)C1 (stereo not given) ?
### Response active

### Prompt Could you check what this test reported for O=c1c2cc(F)ccc2sc2c(NCCCNCCO)nc3ccc(Cl)cc3c12 ?
### Response active

### Prompt Could you check what this test reported for Cc1cc(Br)c(N)c(Br)c1 ?
### Response inactive

----------
System: RPMI-8226 leukemia
Experiment: NCI-60 one-dose screen, 48 h
Conditions: 10 µM unless noted
About 83,000 compounds went through this panel and 20% of them were active in at least one assay; those are over-represented in the sample as a whole. Active and inactive are the calls of the source. The calls were made as follows: active = growth percent below 10; inactive = the rest.
Can you answer with just one of these options? 1 (active), -1 (inactive)

Study these solved cases before continuing.
COc1ccc(Nc2nc(N/N=C/c3ccc(O)cc3)nc(Nc3ccc([N+](=O)[O-])cc3)n2)cc1    -1
COc1ccc(-n2c(C(O)c3ccccc3)nn(CN3CCOCC3)c2=S)cc1 (stereo not given)    -1
CCOC(=O)c1cc2c(n1Cc1ccccc1)-c1oncc1CCC2    -1
COc1ccc(N2C(=O)CC(c3cc(OC)c(OC)c(OC)c3)C3C2=NC(=O)N3C)cc1 (stereo not given)    -1
COc1cc2cc3c(=O)n4c(cc5cc(OC)ncc54)c(=O)n3c2cn1    -1

### Prompt Could you check what this test reported for CCN1C(=O)N(c2ccccc2)C2Nn3c(s/c(=C4\C(=O)N(C(C)C)c5ccccc54)c3=O)=NC21 (stereo not given) ?
### Response -1

### Prompt Could you check what this test reported for CCOC(=O)c1ccc2[nH]c(-c3ccccc3)cc(=O)c2c1 ?
### Response -1

### Prompt Could you check what this test reported for COC(=O)c1c2c(c(C)[n+]([O-])c1C)C(=O)C=C(NCc1ccc(F)c(F)c1)C2=O ?
### Response 1

----------
Tested on: BT-549 breast
Experiment: NCI-60 one-dose screen, 48 h (100 = growth as untreated, 0 = no growth, -100 = all killed)
Settings: 10 µM unless noted
About 83,000 compounds went through this panel and 20% of them were active in at least one assay; those are over-represented in the sample as a whole.
Each entry below carries its recorded growth.
Answer format: numeric, % implied, no suffix.

COc1ccccc1N1C(=N)S/C(=C\c2ccc(OCc3ccccc3F)cc2)C1=O    97.4
COc1ccc(/C=C/C(=O)c2c(C)nc3ccccc3c2/C=C/c2ccccc2)c(OC)c1    89.2
CC1=C(C(=O)OCC2CCN(C(=O)OC(C)(C)C)CC2)[C@@H](c2cccc(C#N)c2)C2=C(CC(C)(C)CC2=O)N1    50.3
CN(C)c1ccc(/C=C/c2ccnc3c(O)cccc23)cc1    17.8
COc1ccc(Nc2cc(C)nc(NCc3ccccc3)n2)cc1    97.6
N#C/C(=C\c1c(-c2ccccc2)[nH]c2ccccc12)S(=O)(=O)c1ccccc1    51.7
CCOC(=O)c1c(C=O)nc2ccccc2c1/C=C/c1ccc(Cl)cc1    99.6
O=C(CSc1ccc2nnc(-c3cccc(F)c3)n2n1)Nc1ccc2c(c1)OCO2    88.3
NCCOc1ccccc1/C=C1\c2ccccc2-c2ccc([N+](=O)[O-])cc21    84.8

# context switch: different compound, same growth
Per the records, this compound ( COC(=O)/C(=C\c1c(-c2ccccc2)[nH]c2ccccc12)S(C)(=O)=O ) has growth equal to 45.7

----------
Tested on: UACC-62 melanoma
Experiment: NCI-60 one-dose screen, 48 h
Details: 10 µM unless noted
This is part of a sample that, as a whole, favours compounds with a hit. Of some 83,000 tested, about 20% had one in any assay. The source made the active and inactive calls. The calls were made as follows: active = growth percent below 10; inactive = the rest.
Can you answer with just one of these options? active, inactive

O=S1(=O)N(Cc2ccccc2)[C@@H](Cc2ccccc2)[C@H](O)[C@H](O)[C@H](Cc2ccccc2)N1Cc1ccccc1    active
Cc1ccc(C2CC(c3ccc(Nc4nc(NCCO)nc(Nc5ccc(Cl)cc5)n4)cc3)=NN2c2cc(Cl)cc(Cl)c2)cc1 (centres undefined)    inactive
COc1cc2cc3c(=O)n4c(cc5cc(OC)ncc54)c(=O)n3c2cn1    inactive

# evaluate next
### Prompt Could you check what this test reported for COc1ccccc1CNC(=O)C1c2ccccc2C(=O)N(CC(C)C)C1c1cccs1 (centres undefined) ?
### Response inactive

----------
System: MOLT-4 leukemia
Test: NCI-60 one-dose screen, 48 h (100 = growth as untreated, 0 = no growth, -100 = all killed)
Conditions: 10 µM unless noted
Protocol: Growth inhibition of the MOLT-4 human tumor cell line is measured as a screen for anti-cancer activity. Cells are grown in 96 well plates and exposed to the test compound for 48 hours. Compounds are tested at a single concentration, which is 10^-5 M for most compounds. The reported endpoint is percent growth (GI% or GIPRCNT), where numbers from 0 - 100% represent growth inhibition, and numbers from -100% - 0 represent cell death. For example, a value of 40 represents 60% growth inhibition. […]
About 83,000 compounds went through this panel and 20% of them were active in at least one assay; those are over-represented in the sample as a whole.
MEASURED_ATTRIBUTE: growth (%)
Answer format: numeric, % implied, no suffix.

Per the records, this molecule ( OC(c1ccccc1)c1nnc(SCc2ccccc2)n1Cc1ccccc1 (stereo not drawn) ) has growth equal to 99.9

Per the records, this molecule ( COc1ccc(/C=C2\CCC/C(=C\c3ccc(OC)c(OC)c3)C2=O)cc1OC ) has growth equal to 6.9

Per the records, this molecule ( CC1=C(C(=O)OCC2CCN(C(=O)OC(C)(C)C)CC2)[C@@H](c2cccc(C#N)c2)C2=C(CC(C)(C)CC2=O)N1 ) has growth equal to 12.5

Per the records, this molecule ( NC(CCl)=NCCC[C@H](N)C(=O)O ) has growth equal to 104

Per the records, this molecule ( COc1ccc(Cn2c(Br)c3c(c2-c2cc(OC)c(OC)c(OC)c2)CCc2sc(NC(=O)c4ccc(OC)cc4)nc2-3)cc1 ) has growth equal to 75.7

Per the records, this molecule ( CCOC(=O)c1cnc2ccc(Cl)cc2c1NCCCN(C)C ) has growth equal to -5.58

Per the records, this molecule ( COc1ccc(Nc2cc(C)nc(NCc3ccccc3)n2)cc1 ) has growth equal to 3.02

Per the records, this molecule ( COc1cc2nc(NC3CCCC3)nc(NC3CCN(C(C)C)CC3)c2cc1OC ) has growth equal to 54.1
